Overview of reported absolute EC50 for viability across a group of molecules:
Tested on: BMSC (primary human bone marrow mesenchymal stromal cells)
protocol_description: absolute EC50 for viability; higher = less sensitive

| molecule | assayed_target | absolute EC50 for viability |
| --- | --- | --- |
| CCNC(=O)C[C@@H]1N=C(c2ccc(Cl)cc2)c2cc(OC)ccc2-n2c(C)nnc21 [Molibresib] | BMSC (primary human bone marrow mesenchymal stromal cells) | > 10 µM |
| Cc1nc(C(=O)NCC(=O)O)c(O)c2ccc(Oc3ccccc3)cc12 [Roxadustat] | BMSC (primary human bone marrow mesenchymal stromal cells) | > 10 µM |
| COc1cc(N2CCC(N3CCN(C)CC3)CC2)ccc1Nc1ncc(Cl)c(Nc2ccccc2P(C)(C)=O)n1 [Brigatinib] | BMSC (primary human bone marrow mesenchymal stromal cells) | 0.945 µM |
| CC(C)C[C@H](NC(=O)CNC(=O)c1cc(Cl)ccc1Cl)B(O)O [Ixazomib] | BMSC (primary human bone marrow mesenchymal stromal cells) | > 1 µM |
| C=CCn1c(=O)c2cnc(Nc3ccc(N4CCN(C)CC4)cc3)nc2n1-c1cccc(C(C)(C)O)n1 [AZD1775] | BMSC (primary human bone marrow mesenchymal stromal cells) | > 10 µM |
| Cc1ccc(NC(=O)c2ccc(CN3CCN(C)CC3)cc2)cc1Nc1nccc(-c2cccnc2)n1 [Imatinib] | BMSC (primary human bone marrow mesenchymal stromal cells) | > 10 µM |
| COC(=O)C[C@](O)(CCCC(C)(C)O)C(=O)O[C@@H]1C(OC)=C[C@]23CCCN2CCc2cc4c(cc2[C@H]13)OCO4 [Omacetaxine] | BMSC (primary human bone marrow mesenchymal stromal cells) | 0.219 µM |
| Cc1ccc(C(=O)N(CCCN)[C@@H](c2oc3cc(Cl)ccc3c(=O)c2Cc2ccccc2)C(C)C)cc1 | BMSC (primary human bone marrow mesenchymal stromal cells) | > 0.1 µM |
| CCCCCCCCCCCCCCCCOP(=O)([O-])OCC[N+](C)(C)C [Miltefosine] | BMSC (primary human bone marrow mesenchymal stromal cells) | 78.2 µM |
| Cc1noc2c1-c1ccccc1C(c1ccc(Cl)cc1)=N[C@H]2CC(N)=O [CPI-0610] | BMSC (primary human bone marrow mesenchymal stromal cells) | > 10 µM |
| c1ccc2n[se]nc2c1 [BCI] | BMSC (primary human bone marrow mesenchymal stromal cells) | 2.55 µM |
| O[C@H]1CC[C@H](Nc2ncc3nc(Nc4c(F)cc(F)cc4F)n([C@H]4CCOC4)c3n2)CC1 [Tanzisertib] | BMSC (primary human bone marrow mesenchymal stromal cells) | > 10 µM |
| Cc1cc2c(F)c(Oc3ncnn4cc(OC[C@@H](C)O)c(C)c34)ccc2[nH]1 [Brivanib] | BMSC (primary human bone marrow mesenchymal stromal cells) | > 1 µM |
| CNC(=O)c1ccc(-c2cnc3ncc(Cc4ccc5ncccc5c4)n3n2)cc1F [Capmatinib] | BMSC (primary human bone marrow mesenchymal stromal cells) | > 1 µM |
| COc1ccc(-c2ccc3ncc4c(c3c2)n(-c2ccc(N3CCNCC3)c(C(F)(F)F)c2)c(=O)n4C)cn1 [NVP-BGT226] | BMSC (primary human bone marrow mesenchymal stromal cells) | 0.0263 µM |
| CC[C@]12C=CCN3CC[C@@]4(c5cc([C@@]6(C(=O)OC)C[C@@H]7C[C@@H](C(C)(F)F)CN(Cc8c6[nH]c6ccccc86)C7)c(OC)cc5N(C)[C@H]4[C@@](O)(C(=O)OC)[C@@H]1OC(C)=O)[C@@H]32 [Vinflunine] | BMSC (primary human bone marrow mesenchymal stromal cells) | > 1 µM |
